Below: a set of entries, each annotated with reported ECHCG herbicidal rating.
Test system: ECHCG (Barnyardgrass)
Measurement protocol: Postemergence herbicidal evaluation
Format: in vivo, Echinochloa crus-galli
Study conditions: postemergence, rate 0.0313 kg/ha

>  <Compound>
C=CCN1C(=O)C(CC(=O)NS(C)(=O)=O)SC1=Nc1cc(-n2c(=O)cc(C(F)(F)F)n(C)c2=O)c(F)cc1Cl (stereo not drawn) [Compound 96]

>  <ECHCG herbicidal rating>
0.0

$$$$
>  <Compound>
C=CCN1C(=O)C(CC(=O)NC)SC1=Nc1cc(-n2c(=O)cc(C(F)(F)F)n(C)c2=O)c(F)cc1Cl (stereo not drawn) [Compound 84]

>  <ECHCG herbicidal rating>
0.0

$$$$
>  <Compound>
CCOC(=O)CN1C(=O)C(CC(=O)NOC)SC1=Nc1cc(-n2c(=O)cc(C(F)(F)F)n(C)c2=O)c(F)cc1Cl (stereo not drawn) [Compound 83]

>  <ECHCG herbicidal rating>
2.0

$$$$
>  <Compound>
CCOC(=O)CN1C(=O)CSC1=Nc1cc(-n2c(=O)cc(C(F)(F)F)n(C)c2=O)c(F)cc1Cl [Compound 8]

>  <ECHCG herbicidal rating>
2.1

$$$$
>  <Compound>
CCOC(=O)CN1C(=O)CN(C)C1=Nc1cc(-n2c(=O)cc(C(F)(F)F)n(C)c2=O)c(F)cc1Cl [Compound 25]

>  <ECHCG herbicidal rating>
0.0

$$$$
>  <Compound>
CCOC(=O)/C=C1/S/C(=N/c2cc(-n3c(=O)cc(C(F)(F)F)n(C)c3=O)c(F)cc2Cl)N(CC(=O)OCC)C1=O [Compound 14]

>  <ECHCG herbicidal rating>
9.0

$$$$

----------
System: SETVI (Foxtail, Green)
Measurement protocol: Postemergence herbicidal evaluation
Type: in vivo, Setaria viridis
Study conditions: postemergence, rate 0.0625 kg/ha
Assay endpoint: SETVI herbicidal rating

>  <Compound>
CCC1SC(=Nc2cc(N3C(=O)C4=C(CCCC4)C3=O)c(F)cc2Cl)N(C)C1=O (centres unmarked) [Compound 6]

>  <Number>
0.0

$$$$
>  <Compound>
CCOC(=O)CN1C(=O)C(CC(=O)NOC)SC1=Nc1cc(-n2c(=O)cc(C(F)(F)F)n(C)c2=O)c(F)cc1Cl (centres unmarked) [Compound 83]

>  <Number>
8.0

$$$$
>  <Compound>
CCOC(=O)CN1C(=O)CN(C)C1=Nc1cc(-n2c(=O)cc(C(F)(F)F)n(C)c2=O)c(F)cc1Cl [Compound 25]

>  <Number>
0.0

$$$$
>  <Compound>
CCOC(=O)CN1C(=O)CSC1=Nc1cc(-n2c(=O)cc(C(F)(F)F)n(C)c2=O)c(F)cc1Cl [Compound 8]

>  <Number>
7.6

$$$$
>  <Compound>
CCOC(=O)CN1C(=O)C2(CC2)SC1=Nc1cc(-n2c(=O)cc(C(F)(F)F)n(C)c2=O)c(F)cc1Cl [Compound 15]

>  <Number>
2.0

$$$$

----------
Test system: ZEAMX (Corn, Field)
Measurement protocol: Preemergence herbicidal evaluation
Format: in vivo, Zea mays
Study conditions: rate 0.0625 kg/ha; rated 4-5 weeks after treatment
Below: a set of entries, each annotated with reported Preemergence herbicidal rating ZEAMX.
Assay endpoint: Preemergence herbicidal rating ZEAMX

>  <Compound>
CC(C)COC(=O)CN1C(=O)CSC1=Nc1cc(-n2c(=O)cc(C(F)(F)F)n(C)c2=O)c(F)cc1Cl [Compound 121]

>  <Target desc>
ZEAMX (Corn, Field)

>  <Assay endpoint>
Preemergence herbicidal rating ZEAMX

>  <Number>
6.0

$$$$
>  <Compound>
Cc1ccccc1CN1C(=O)CSC1=Nc1cc(-n2c(=O)cc(C(F)(F)F)n(C)c2=O)c(F)cc1Cl [Compound 129]

>  <Target desc>
ZEAMX (Corn, Field)

>  <Assay endpoint>
Preemergence herbicidal rating ZEAMX

>  <Number>
0.0

$$$$
>  <Compound>
C[C@@H](C(=O)OC(C)(C)C)N1C(=O)CSC1=Nc1cc(-n2c(=O)cc(C(F)(F)F)n(C)c2=O)c(F)cc1Cl [Compound 75]

>  <Target desc>
ZEAMX (Corn, Field)

>  <Assay endpoint>
Preemergence herbicidal rating ZEAMX

>  <Number>
0.0

$$$$
>  <Compound>
CCOC(=O)CN1C(=O)C(C(=O)OC)SC1=Nc1cc(-n2c(=O)cc(C(F)(F)F)n(C)c2=O)c(F)cc1Cl (stereo not shown) [Compound 128]

>  <Target desc>
ZEAMX (Corn, Field)

>  <Assay endpoint>
Preemergence herbicidal rating ZEAMX

>  <Number>
0.0

$$$$
>  <Compound>
CCOC(=O)CN1C(=O)C(CCO)S/C1=N/c1cc(-n2c(=O)cc(C(F)(F)F)n(C)c2=O)c(F)cc1Cl (stereo not shown) [Compound 49]

>  <Target desc>
ZEAMX (Corn, Field)

>  <Assay endpoint>
Preemergence herbicidal rating ZEAMX

>  <Number>
0.0

$$$$
>  <Compound>
CCOC(=O)CN1C(=O)C(CC(=O)Nc2ccccc2)SC1=Nc1cc(-n2c(=O)cc(C(F)(F)F)n(C)c2=O)c(F)cc1Cl (stereo not shown) [Compound 68]

>  <Target desc>
ZEAMX (Corn, Field)

>  <Assay endpoint>
Preemergence herbicidal rating ZEAMX

>  <Number>
0.0

$$$$
>  <Compound>
Cn1c(C(F)(F)F)cc(=O)n(-c2cc(N=C3SCC(=O)N3CC(=O)OCC3CCCCC3)c(Cl)cc2F)c1=O [Compound 123]

>  <Target desc>
ZEAMX (Corn, Field)

>  <Assay endpoint>
Preemergence herbicidal rating ZEAMX

>  <Number>
1.0

$$$$

----------
System: ECHCG (Barnyardgrass)
Measurement protocol: Preemergence herbicidal evaluation
Format: in vivo, Echinochloa crus-galli
Study conditions: preemergence, 0.1250 kg/ha, rated 4-5 weeks after treatment, 0-9 scale

>  <Compound>
CN1C(=O)C(CC(=O)OCCF)SC1=Nc1cc(-n2c(=O)cc(C(F)(F)F)n(C)c2=O)c(F)cc1Cl (centres unmarked) [Compound 93]

>  <ECHCG rating>
0.0

$$$$
>  <Compound>
C=CCN1C(=O)C(CC(=O)OCCF)SC1=Nc1cc(-n2c(=O)cc(C(F)(F)F)n(C)c2=O)c(F)cc1Cl (centres unmarked) [Compound 86]

>  <ECHCG rating>
0.0

$$$$
>  <Compound>
CCOC(=O)CN1C(=O)C(CC(=O)NOC)SC1=Nc1cc(-n2c(=O)cc(C(F)(F)F)n(C)c2=O)c(F)cc1Cl (centres unmarked) [Compound 83]

>  <ECHCG rating>
0.0

$$$$
>  <Compound>
CN1C(=O)C(CC(=O)Nc2ccccc2)SC1=Nc1cc(-n2c(=O)cc(C(F)(F)F)n(C)c2=O)c(F)cc1Cl (centres unmarked) [Compound 91]

>  <ECHCG rating>
0.0

$$$$
>  <Compound>
CCOC(=O)CN1C(=O)C(CC(=O)NO)S/C1=N/c1cc(-n2c(=O)cc(C(F)(F)F)n(C)c2=O)c(F)cc1Cl (centres unmarked) [Compound 98]

>  <ECHCG rating>
1.0

$$$$

----------
System: SETVI (Foxtail, Green)
Measurement protocol: Preemergence herbicidal evaluation
Type: in vivo, Setaria viridis
Study conditions: rate 0.0625 kg/ha; rated 4-5 weeks after treatment
Assay endpoint: Preemergence herbicidal rating SETVI

>  <Compound>
CCOC(=O)CN1C(=O)C(CC(=O)O)SC1=Nc1cc(-n2c(=O)cc(C(F)(F)F)n(C)c2=O)c(Cl)cc1Cl (stereo not drawn)

>  <Target desc>
SETVI (Foxtail, Green)

>  <Assay endpoint>
Preemergence herbicidal rating SETVI

>  <Number>
3.0

$$$$
>  <Compound>
CC(C)OC(=O)CN1C(=O)CSC1=Nc1cc(-n2c(=O)cc(C(F)(F)F)n(C)c2=O)c(F)cc1Cl

>  <Target desc>
SETVI (Foxtail, Green)

>  <Assay endpoint>
Preemergence herbicidal rating SETVI

>  <Number>
5.0

$$$$
>  <Compound>
C[C@@H](C(=O)O)N1C(=O)CS/C1=N/c1cc(-n2c(=O)cc(C(F)(F)F)n(C)c2=O)c(F)cc1Cl

>  <Target desc>
SETVI (Foxtail, Green)

>  <Assay endpoint>
Preemergence herbicidal rating SETVI

>  <Number>
3.0

$$$$
>  <Compound>
Cc1ccccc1CN1C(=O)CSC1=Nc1cc(-n2c(=O)cc(C(F)(F)F)n(C)c2=O)c(F)cc1Cl

>  <Target desc>
SETVI (Foxtail, Green)

>  <Assay endpoint>
Preemergence herbicidal rating SETVI

>  <Number>
1.0

$$$$
>  <Compound>
CCOC(=O)CN1C(=O)C(CCO)S/C1=N/c1cc(-n2c(=O)cc(C(F)(F)F)n(C)c2=O)c(F)cc1Cl (stereo not drawn)

>  <Target desc>
SETVI (Foxtail, Green)

>  <Assay endpoint>
Preemergence herbicidal rating SETVI

>  <Number>
5.0

$$$$
>  <Compound>
CCOC(=O)CN1C(=O)C(Cc2ccccc2OCC(=O)O)S/C1=N/c1cc(-n2c(=O)cc(C(F)(F)F)n(C)c2=O)c(F)cc1Cl (stereo not drawn)

>  <Target desc>
SETVI (Foxtail, Green)

>  <Assay endpoint>
Preemergence herbicidal rating SETVI

>  <Number>
0.0

$$$$
